- Test system: VEGFR2
- Construct: gene KDR
- conditions: concentration: 1 μM, replicates: in singlicate; n = 1;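 also: KINOMEscan kinase panel screen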
Lab note: compare %Inh against 30%. Equal or greater, write criterion met. Smaller, write criterion not met.

input: Can CNC(=O)c1ccccc1Nc1nc(Nc2ccc(N3CCOCC3)cc2)ncc1Cl.Cl be said to have %Inh at or above 30%?
output: criterion met

input: Please tell me: is the compound CCS(=O)(=O)c1ccc(OC)c(Nc2nccc(-c3c(-c4cccc(NC(=O)c5c(F)cccc5F)c4)nn4ncccc34)n2)c1 at or over 30% in terms of %Inh?
output: criterion not met

input: Identify whether the reported %Inh of the following compound is 30% or greater: CN1CCN(CCCNc2nccc(-c3c(-c4ccc(F)cc4)nn4cc(C(F)(F)F)ccc34)n2)CC1
output: criterion not met

input: Is it the case that COc1ccc(Nc2nccc(NCCNC(=O)c3cc4ccccc4s3)n2)cc1 has %Inh reaching or exceeding 30%?
output: criterion not met

input: Would you say Cn1cc(-c2[nH]c3cc(NC(=O)[C@H](N)C4CCCCC4)cc4c3c2C=NNC4=O)cn1 shows %Inh at minimum 30%?
output: criterion met

input: Please tell me: is the compound Cl.c1ccc(-c2ccc3c(Nc4ccc5[nH]ccc5c4)ccnc3c2)nc1 at or over 30% in terms of %Inh?
output: criterion met

input: Given COc1cccc(C2=C(Nc3ccc(Cl)c(C(=O)O)c3)C(=O)NC2=O)c1 , state whether its %Inh is at least 30%.
output: criterion not met

---

- System: p38-beta
- Construct: gene MAPK11
- conditions: concentration: 1 μM, replicates: in singlicate; n = 1
value-kind: %Inh (%)
Report the value in % with no unit label.

Nc1ncc(-c2ccc3nccc(-c4ccncc4)c3c2)cc1S(=O)(=O)N1CCOCC1 : 0
FC(F)(F)c1ccc(/C=C/c2cncnc2Nc2ccc3[nH]c(Cc4ccccc4)nc3c2)cc1 : 3

input: Requested read-out: %Inh. Entry: COc1ccc(-c2coc3ccc(-c4nnc(SCc5ccc(OC)c(C(F)(F)F)c5)o4)cc23)cc1
output: 6

input: Item under review: Cn1cc(-c2ccc3c(c2)CCN3C(=O)Cc2cccc(Cl)c2)c2c(N)ncnc21 . Reported %Inh?
output: 0

input: Any idea what %Inh was measured for Cc1cccc(Nc2nc(N[C@H]3CCNC3)ncc2C(N)=O)c1.Cl ?
output: 0

input: Please look up its %Inh: Nc1ncc(-c2cccnc2)c2scc(-c3ccc4c(c3)CCN4C(=O)Cc3ccccc3)c12
output: 0

input: May I ask what %Inh has been recorded for O=C(Nc1cccc(Oc2ccc3nc(NC(=O)C4CC4)cn3n2)c1)c1ccccc1C(F)(F)F ?
output: 15

input: Return reported %Inh; argument: O=C(Nc1cccc(-c2nn3ncccc3c2-c2ccnc(Nc3ccccc3)n2)c1)c1c(F)cccc1F
output: 99.2

---

- System: MERTK
- conditions: concentration: 1 μM, replicates: in singlicate; n = 1
Listed here are compounds together with their documented %Inh.
Report only the number, with the unit % understood.

# example entries with known answers
Cc1occc1-c1ncc(OC[C@@H](N)Cc2c[nH]c3ccccc23)cc1-c1ccc2[nH]nc(C)c2c1.O=C(O)C(F)(F)F : 66
Cn1cc(-c2ccc3c(c2)CCN3C(=O)Cc2cccc(F)c2)c2c(N)ncnc21 : 49
Nc1n[nH]c2cnc(-c3ccccc3)cc12 : 43
Cl.c1ccc(-c2ccc3c(Nc4ccc5[nH]ncc5c4)ccnc3c2)nc1 : 0
CC(C)c1nc(-c2cccc(NS(=O)(=O)c3c(F)cccc3F)c2F)c(-c2ccnc(Nc3ccc(N4CCOCC4)nc3)n2)s1 : 79
Cl.Cl.NCC(NCc1ccc(-c2ccnc3[nH]ccc23)s1)c1ccccc1 (centres unmarked) : 74

input: # input compound: COc1cc2c(cc1OCCN1CCNCC1)ncc1c3ccc(C#N)cc3[nH]c21 ; wanted: its %Inh
output: 0

input: Report %Inh for CC(C)(C)c1ccc2nccc(Nc3cccc(O)c3)c2c1 please.
output: 0

---

- Test system: CAMK4
- conditions: concentration: 1 μM, replicates: in singlicate; n = 1
// reported %Inh for each item listed
Kindly provide the numeric value in % only, without the unit symbol.

Before answering, review these 7 worked examples.
COC(=O)Nc1nc2ccc(Oc3ccc(NC(=O)Nc4cc(C(F)(F)F)ccc4F)cc3)cc2n1C.Cl : 0
CCCCc1nn2ncccc2c1-c1ccnc(Nc2ccc(N3CCN(C)CC3)cc2)n1 : 0
CN1CCN(CCCNc2nccc(-c3c(-c4ccc(F)cc4)nn4cc(C(F)(F)F)ccc34)n2)CC1 : 0
CC(C)c1nc(-c2cccc(NS(=O)(=O)c3c(F)cccc3F)c2F)c(-c2ccnc(Nc3ccc(N4CCOCC4)nc3)n2)s1 : 65
Cl.Cl.NCC(NC(=O)c1cc(-c2ccccc2)c(-c2ccnc3[nH]ccc23)s1)c1ccccc1 (centres unmarked) : 0
CC(C)(C)c1ccc2nccc(Nc3cccc(O)c3)c2c1 : 0
COc1cccc(NC(=O)NC2CCN(c3ccnc(Nc4cc(OC)c(OC)c(OC)c4)n3)C2)c1 (centres unmarked) : 0

// next item, %Inh requested
input: # returns recorded %Inh (system: CAMK4) for CCn1c(-c2nonc2N)nc2c(C#CC(C)(C)O)ncc(OCCCCN)c21.O=C(O)C(F)(F)F.O=C(O)C(F)(F)F
output: 50

---

Property: %Inh; scope: individual compounds
- Test system: SgK110
- conditions: concentration: 1 μM, replicates: in singlicate; n = 1
Unit % implied. Number only.

A selection of reference data follows.
Cc1occc1-c1ncc(OC[C@@H](N)Cc2c[nH]c3ccccc23)cc1-c1ccc2[nH]nc(C)c2c1.O=C(O)C(F)(F)F : 0
Nc1n[nH]c2cnc(-c3ccccc3)cc12 : 50
Clc1ccc(-c2nn3ncccc3c2-c2ccnc(Nc3ccc4c(c3)OCCO4)n2)cc1 : 11
Cc1ccc(C)c(NC(=O)NC2CCN(c3ccnc(Nc4ccc(F)cc4)n3)C2)c1 (stereo not drawn) : 11
Cl.c1ccc(-c2ccc3c(Nc4ccc5[nH]ncc5c4)ccnc3c2)nc1 : 6
CNC(=O)c1ccccc1Nc1nc(Nc2ccc(N3CCOCC3)cc2)ncc1Cl.Cl : 90.5

input: Given Cl.NC(=O)c1cccc(Nc2nccc(Nc3ccc(Oc4c(Cl)cccc4Cl)c(Cl)c3)n2)c1 , state its recorded %Inh.
output: 0

input: Which %Inh reading was recorded for the compound COc1cccc(C(=O)Nc2cccc(Oc3ccc4nc(NC(=O)C5CC5)cn4n3)c2)c1 ?
output: 0

input: # query: %Inh of entry O=C(NC1CCN(c2ccnc(Nc3ccc(F)cc3)n2)C1)c1cc2ccccc2s1 (stereo not drawn)
output: 0

input: Query (compound): c1ccc(-c2n[nH]cc2Nc2ccnc3ccccc23)nc1 ; field requested: %Inh
output: 0

input: Can you look up the measured %Inh of NCCCC(NC(=O)c1cc(Br)c(-c2ccnc3[nH]ccc23)s1)c1ccccc1.O=C(O)C(F)(F)F.O=C(O)C(F)(F)F (stereo not drawn) for me?
output: 58

input: Sample Cl.Cl.NCC(NCc1ccc(-c2ccnc3[nH]ccc23)s1)c1ccccc1 (stereo not drawn) — what was its %Inh?
output: 8

input: Quick one: %Inh for O=C(Nc1ccccc1F)NC1CCN(c2ccnc(Nc3ccc(F)cc3)n2)CC1 ?
output: 0

input: Please give the measured %Inh for this compound: O=c1[nH]cc(-c2ccc(N3CCOCC3)cc2)c2sc(-c3cn[nH]c3)cc12
output: 0

input: Suppose we examine the compound Oc1cc(Nc2ccnc3cc(I)ccc23)ccc1F ; what %Inh value has been reported?
output: 0

---

- Tested on: PRP4
- conditions: concentration: 1 μM, replicates: in singlicate; n = 1
value-kind: %Inh (%)
Please give a number only; it is taken to be in %.

input: So what's the measured %Inh for this one? CN(C)S(=O)(=O)c1cc(-c2ccc3nccc(-c4cccc(S(N)(=O)=O)c4)c3c2)cnc1N [GSK1669921]
output: 0

input: What value of %Inh has been reported for the following compound? Cl.NC(=O)c1cccc(Nc2nccc(Nc3ccc(Oc4c(Cl)cccc4Cl)c(Cl)c3)n2)c1 [GW659009]
output: 20

input: Look at this compound and give its reported %Inh. Nc1n[nH]c2cnc(-c3ccccc3)cc12 [SB-642124]
output: 18

input: What %Inh value was documented for this compound, Cc1ccc(C(=O)N2CC[C@@H](O)C2)cc1-n1c(C)cc(OCc2ccc(F)cc2F)c(Br)c1=O ?
output: 20

input: Any idea what %Inh was measured for O=C(Nc1ccccc1F)NC1CCN(c2ccnc(Nc3ccc(F)cc3)n2)CC1 [GSK1379800] ?
output: 45

input: Returns the measured %Inh for the input compound. Input: C[C@@H]1CC[C@@H](C(=O)Nc2ccccc2)CN1c1cc(-c2ccc3c(N)n[nH]c3c2)nc(N)n1 [GSK2286062]
output: 13

input: Form field: reported %Inh of Cc1ccc(S(=O)(=O)Nc2ccc(Nc3nccc(Nc4cccc5[nH]ncc45)n3)cc2)cc1 [GSK581271]
output: 53

input: Please give the measured %Inh for this compound: Cn1cc(-c2ccc3c(c2)CCN3C(=O)Cc2cccc(F)c2)c2c(N)ncnc21 [GSK2603358]
output: 44
